Assign self-splicing fitness (ln) to each entry below.
- Procedure Summary: self-splicing fitness, log relative to wild type (ln ratio); higher = more splicing; Tetrahymena group I intron in knt gene, E. coli kanamycin selection, DiMSum; sequences stand for … in CUCUCU…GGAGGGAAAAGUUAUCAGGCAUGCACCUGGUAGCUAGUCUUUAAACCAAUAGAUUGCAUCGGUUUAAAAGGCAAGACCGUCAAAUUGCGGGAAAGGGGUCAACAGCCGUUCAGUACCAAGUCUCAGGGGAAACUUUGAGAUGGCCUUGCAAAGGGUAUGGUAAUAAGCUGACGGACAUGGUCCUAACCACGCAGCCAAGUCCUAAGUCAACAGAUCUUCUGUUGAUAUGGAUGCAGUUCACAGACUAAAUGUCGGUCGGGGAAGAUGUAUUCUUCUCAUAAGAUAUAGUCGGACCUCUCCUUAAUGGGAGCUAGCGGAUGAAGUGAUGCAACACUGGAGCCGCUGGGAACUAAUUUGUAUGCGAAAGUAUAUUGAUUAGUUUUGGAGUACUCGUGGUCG;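 further: selection with 25 µg/mL kanamycin versus none on LB agar overnight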
- Condition Info: 30 °C
Simply state the number, no unit and no words.

Given the entry "GCCGAGCAAUAUUACGACAC" , report its measured self-splicing fitness (ln). -1.4

Now the same for "CGACAGCAAUAUUACGUACG" -3.63

Field entry: "AUCAAGCAAUAUUACGAUUU" -0.487

Also "UUUCAGCAAUAUUACGAAAA" , if possible. -1.02

"AUCUAGCAAUAUUACGCCAU" ? -2.72

What about "AAUAAGCAAUAUUACGGAAC" ? -4.53

Sourced from the supplement of paper PMC7877785
